Target: T1, human ActRIIB (human, UniProt Q13705 19-137, limits assumed);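 also: immunoglobulin held at a fixed level and mixed with serially diluted antigen overnight at 4 °C to equilibrium, then unbound antibody captured on antigen-coated plates and read by electrochemiluminescence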
T1 construct: antigen in MSD-SET; also called ACVR2B; ActR2B
T1 sequence: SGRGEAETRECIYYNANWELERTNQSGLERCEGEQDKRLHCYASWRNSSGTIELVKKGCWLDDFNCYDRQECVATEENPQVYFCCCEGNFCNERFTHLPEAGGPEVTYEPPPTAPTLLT
Test: MSD-SET
pKd: −log10 of the molar value.
Assay endpoint: pKd

>>> measured("Schwardamaga, Mouse IgG2a-PALALA (antibody, V domains shown, mouse IgG2a constant region with PALALA) VH: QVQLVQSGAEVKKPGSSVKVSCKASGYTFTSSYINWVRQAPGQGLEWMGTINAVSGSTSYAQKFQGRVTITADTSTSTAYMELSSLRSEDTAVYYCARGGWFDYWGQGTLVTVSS VL: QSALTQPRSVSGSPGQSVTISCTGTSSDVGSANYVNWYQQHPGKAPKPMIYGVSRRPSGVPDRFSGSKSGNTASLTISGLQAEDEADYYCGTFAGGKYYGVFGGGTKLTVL")
10.80
